Molecular target: Type-2 angiotensin II receptor (Homo sapiens, UniProt P50052)
Sequence (P50052 whole entry): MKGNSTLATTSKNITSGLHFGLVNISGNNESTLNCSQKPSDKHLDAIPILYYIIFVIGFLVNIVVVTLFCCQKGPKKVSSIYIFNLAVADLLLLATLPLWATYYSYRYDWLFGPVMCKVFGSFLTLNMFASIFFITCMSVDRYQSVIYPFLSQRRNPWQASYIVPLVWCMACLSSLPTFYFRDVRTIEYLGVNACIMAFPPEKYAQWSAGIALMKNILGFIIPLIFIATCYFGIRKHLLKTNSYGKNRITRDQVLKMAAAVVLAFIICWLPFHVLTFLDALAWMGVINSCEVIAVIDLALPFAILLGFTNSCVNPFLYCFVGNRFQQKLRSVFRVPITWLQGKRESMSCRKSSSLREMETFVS
observed property: IC50 (nM)

# query smiles, experimental system, observed property, result unit, censoring sign, numeric readout
data = [
    ("CCCc1nc2c(C)cc(NC(=O)CCc3ccccc3)cc2n1Cc1ccc(-c2ccccc2C(=O)O)cc1", "Type-2 angiotensin II receptor (Homo sapiens, UniProt P50052)", "IC50", "nM", "=", 149),
    ("CCCc1nc2c(C)cc(NC(=O)OC)cc2n1Cc1ccc(-c2ccccc2C(=O)O)cc1", "Type-2 angiotensin II receptor (Homo sapiens, UniProt P50052)", "IC50", "nM", "=", 4370),
    ("CCCc1nc2c(C)cc(NC(=O)c3ccccc3)cc2n1Cc1ccc(-c2ccccc2C(=O)O)cc1", "Type-2 angiotensin II receptor (Homo sapiens, UniProt P50052)", "IC50", "nM", "=", 6),
    ("CCCc1nc2c(C)cc(C(=O)NCCc3ccccc3)cc2n1Cc1ccc(-c2ccccc2C(=O)O)cc1", "Type-2 angiotensin II receptor (Homo sapiens, UniProt P50052)", "IC50", "nM", ">", 10000),
    ("CCCc1nc2c(C)cc(C(=O)NCCN3CCOCC3)cc2n1Cc1ccc(-c2ccccc2C(=O)O)cc1", "Type-2 angiotensin II receptor (Homo sapiens, UniProt P50052)", "IC50", "nM", ">", 10000),
    ("CCCc1nc2c(C)cc(C(=O)Nc3ccc(C)cc3)cc2n1Cc1ccc(-c2ccccc2C(=O)O)cc1", "Type-2 angiotensin II receptor (Homo sapiens, UniProt P50052)", "IC50", "nM", "=", 61),
    ("CCCC(=O)Nc1cc(C)c2nc(CCC)n(Cc3ccc(-c4ccccc4C(=O)O)cc3)c2c1", "Type-2 angiotensin II receptor (Homo sapiens, UniProt P50052)", "IC50", "nM", "=", 53),
]
